Assay remarks: Water solubility of the peptides
Format: physicochemical
Starred links: 1 amine or outer side, 2 acyl side, 3 side chain; linkers in the order of their positions; H or OH if unused. Non-standard residues stand in square brackets, D forms with d. Residues, ends and D or L forms follow the SMILES beside them. X1 = CCCCCCCC[C@@H](C(=O)[*:2])N(C)[*:1]; Gly(octyl) = CCCCCCCC[C@H](N)C(=O)O; NMeL = CN[C@@H](CC(C)C)C(=O)O
Provide the reported solubility of each item.

For the 3 compounds below, give their solubility values.
1. CCCCCCCC[C@H](NC(C)=O)C(=O)N[C@@H](CO)C(=O)N(C)[C@@H](CC(C)C)C(=O)N[C@@H](CO)C(=O)N(C)[C@@H](CC(C)C)C(=O)N[C@@H](CC(=O)O)C(=O)N(C)[C@@H](CCCCCCCC)C(=O)N[C@@H](CC(=O)O)C(N)=O [BP-3] (Ac-[Gly(octyl)]S[NMeL]S[NMeL]D[X1]D-NH2)
2. CCCCCCCC[C@H](NC(C)=O)C(=O)N[C@@H](CO)C(=O)N(C)[C@@H](CC(C)C)C(=O)N[C@@H](CO)C(=O)N(C)[C@@H](CC(C)C)C(=O)N[C@@H](CC(=O)O)C(=O)N[C@@H](CCCCCCCC)C(=O)N[C@@H](CC(=O)O)C(N)=O [BP-2] (Ac-[Gly(octyl)]S[NMeL]S[NMeL]D[Gly(octyl)]D-NH2)
3. CCCCCCCC[C@H](NC(C)=O)C(=O)N[C@@H](CO)C(=O)N[C@@H](CC(C)C)C(=O)N[C@@H](CO)C(=O)N(C)[C@@H](CC(C)C)C(=O)N[C@@H](CC(=O)O)C(=O)N[C@@H](CCCCCCCC)C(=O)N[C@@H](CC(=O)O)C(N)=O [BP-1] (Ac-[Gly(octyl)]SLS[NMeL]D[Gly(octyl)]D-NH2)

Data returned:
~1000 µM
~3000 µM
~3000 µM
